- assayed target: GRIP2_6, Q9C0E4
- Sequence (Q9C0E4 648-740): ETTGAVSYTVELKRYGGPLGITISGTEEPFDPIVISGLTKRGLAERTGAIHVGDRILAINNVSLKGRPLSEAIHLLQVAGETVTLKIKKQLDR
- experiment: holdup assay
- Parameters: key: below the threshold = too weak to quantify, mostly under pKd 3.1 to 4
- condition set: plain residues with an end cap or a label only (N-terminal biotin on a linker: ado-ado)

- binder: "MLPANYVEAI [NEB, P20929]"
  pKd: "below the threshold"
- binder: "RGKNRRQSIF [CDK18, Q07002]"
  pKd: "below the threshold"
- binder: "QKASRNESTF [POLR1D, P0DPB6]"
  pKd: "below the threshold"
- binder: "HYPASPDSWV [CTNND2, Q9UQB3]"
  pKd: "below the threshold"
- binder: "EPAKETTTNV [SLC2A3, P11169]"
  pKd: "below the threshold"
- binder: "THHRKIHTRV [ZNF599, Q96NL3]"
  pKd: 3.86
- binder: "QRYPGNQTTC [CCL24, O00175]"
  pKd: "below the threshold"
- binder: "PKSNSSKEYV [CLDN7, O95471]"
  pKd: "below the threshold"
- binder: "TKDKVQETQI [LRRC4, Q9HBW1]"
  pKd: "below the threshold"
- binder: "FHSIKQSTAV [CRHR1, P34998]"
  pKd: "below the threshold"
- binder: "ADEMICITTL [CACNA1D, Q01668]"
  pKd: "below the threshold"
- binder: "DFKHTKSFII [JAM2, P57087]"
  pKd: 4.41
- binder: "PSDSVGKDVF [EGLN1, Q9GZT9]"
  pKd: "below the threshold"
- binder: "QKNKDREYYV [NRXN3, Q9HDB5]"
  pKd: 4.27
- binder: "KAEEKPPSKV [SCN4B, Q8IWT1]"
  pKd: "below the threshold"
- binder: "EAVTVESTSL [SLC22A11, Q9NSA0]"
  pKd: "below the threshold"

// provenance: paper PMC9482650
